Test system: CAKI-1 renal
Procedure summary: NCI-60 one-dose screen, 48 h
Condition info: 10 µM unless noted
About 83,000 compounds went through this panel and 20% of them were active in at least one assay; those are over-represented in the sample as a whole. Active and inactive are the calls of the source. How the source made its calls: active means growth percent below 10; inactive means the rest.
The reply should be one of these categories: class 1 (active), class 0 (inactive)

[[record]]
molecule = "CCOC(=O)C(=CNc1cnc(Nc2ccc(N3CCOCC3)cc2)nc1Oc1ccc(OC)cc1)C(=O)OCC"
system_under_test = "CAKI-1 renal"
label = "class 0"

[[record]]
molecule = "COC(=O)c1ccc(NC(=O)Nc2ccc(C(=O)OC)cc2)cc1"
system_under_test = "CAKI-1 renal"
label = "class 0"


Exercise: Identify the outcome logged in this assay for the molecule shown: `Nc1[nH]c(=S)nc2oc(-c3ccccc3)c(-c3ccccc3)c12`
Key: class 0

Exercise: Identify the outcome logged in this assay for the molecule shown: `COc1ccc2cc(-c3ccnc4c(N=Nc5ccc(Cl)cc5)c(N)nn34)ccc2c1`
Key: class 0

Exercise: Identify the outcome logged in this assay for the molecule shown: `COc1cc(/C=N/Nc2ccc(Br)cc2)cc(OC)c1OC`
Key: class 0

Exercise: Identify the outcome logged in this assay for the molecule shown: `CN1CCN(CCOc2ccc(-c3cnc4c(-c5ccc(F)cc5)cnn4c3)cc2)CC1`
Key: class 0

Exercise: Identify the outcome logged in this assay for the molecule shown: `Cc1ccc(C)c(/C=C2\CN(C(=O)OC(C)(C)C)C/C(=C\c3cc(C)ccc3C)C2=O)c1`
Key: class 0

Exercise: Identify the outcome logged in this assay for the molecule shown: `O=C(Cc1cccc(OC(F)(F)F)c1)Nc1ccc(CCCCc2nnc(NC(=O)Cc3ccccn3)s2)nn1`
Key: class 0

Exercise: Identify the outcome logged in this assay for the molecule shown: `C=CC(=O)Nc1ccc(Oc2nccc(Nc3nnc(-c4ccc(C)cc4)s3)n2)cc1`
Key: class 0

Exercise: Identify the outcome logged in this assay for the molecule shown: `C=C(C)[C@@H]1CC[C@]2(COC(C)=O)CC[C@]3(C)[C@H](CC[C@@H]4[C@@]5(C)CCCN(C(C)=O)C(C)(C)[C@@H]5CC[C@]43C)[C@@H]12`
Key: class 0

Exercise: Identify the outcome logged in this assay for the molecule shown: `COc1cccc(/C=N/NC(=O)c2ccccc2N2CCCC2)c1O`
Key: class 1

Exercise: Identify the outcome logged in this assay for the molecule shown: `CCN1CCN(CC(=O)Nc2nc3ccc(NCc4ccc(F)cc4)cc3s2)CC1`
Key: class 0

Exercise: Identify the outcome logged in this assay for the molecule shown: `Cc1ccccc1Nc1cc(O)c2c(=O)cc(-c3ccccc3)oc2c1`
Key: class 0

Exercise: Identify the outcome logged in this assay for the molecule shown: `CC1=C2[C@@H](CC1)[C@]1(C)O[C@@](c3ccccc3)(C[C@H]1OC(=O)CO)[C@H]2OC(=O)/C=C/c1ccccc1`
Key: class 0

Exercise: Identify the outcome logged in this assay for the molecule shown: `C=C1C(=O)O[C@H]2[C@H]1CC/C(COC(=O)NCc1ccc(Cn3c(=O)sn(-c4ccc(C#N)cc4)c3=O)cc1)=C\CC[C@@]1(C)O[C@@H]21`
Key: class 0

Exercise: Identify the outcome logged in this assay for the molecule shown: `COc1ccc(/C=C/c2ccc3ccccc3n2)c(OC)c1`
Key: class 0

Exercise: Identify the outcome logged in this assay for the molecule shown: Cc1nc2sc(C(=O)Nc3cccc(Br)c3C)c(N)c2cc1C(O)c1ccccc1 (stereo not drawn)
Key: class 0

Exercise: Identify the outcome logged in this assay for the molecule shown: O=C(C1CCCCC1)[C@@H]1[C@]2(C(=O)NC3CCCCC32)[C@@H]2CCCN2[C@@]12C(=O)NC1CCC(Cl)CC12 (stereo partly drawn)
Key: class 1

* * *

System: MOLT-4 leukemia
Procedure summary: NCI-60 one-dose screen, 48 h (100 = growth as untreated, 0 = no growth, -100 = all killed)
Condition info: 10 µM unless noted
The panel holds about 83,000 compounds, 20% with a hit somewhere; the sample as a whole holds those more often.
hey, just use 1 if measured growth is less than 30%, otherwise -1

# count of solved cases: 5
[[record]]
compound = "C/C(=N\\O)[C@@H]1CC[C@]2(CO)CC[C@]3(C)[C@H](CC[C@@H]4[C@@]5(C)CCCNC(C)(C)[C@@H]5CC[C@]43C)[C@@H]12"
label = -1

[[record]]
compound = "Cc1c(CC(=S)N2CCOCC2)nnn1-c1cccc(C(F)(F)F)c1"
label = -1

[[record]]
compound = "CN1CCN(Cc2ccc(NC(=O)c3cncc(C#Cc4cnc(N)c5ncccc45)c3)cc2C(F)(F)F)CC1"
label = 1

[[record]]
compound = "O=C1/C(=C\\c2cccc3nccnc23)SC(=S)N1CCc1ccc(O)cc1"
label = -1

[[record]]
compound = "O=C(Nc1ncc(Cc2ccccc2)s1)c1ccc2c(c1)OCCCO2"
label = 1


Exercise: Is growth of `O=C(N/N=C\c1ccccc1S(=O)(=O)O)N/N=C/c1ccccc1S(=O)(=O)O` strictly below 30%?
Key: -1

Exercise: Is growth of Nc1ncnc2c1N=C(c1ccc3c(c1)OCO3)CC(c1cccc(Nc3ccnc4cc(C(F)(F)F)ccc34)c1)N2 (stereo not drawn) strictly below 30%?
Key: -1

* * *

System: CCRF-CEM leukemia
Procedure summary: NCI-60 one-dose screen, 48 h
Condition info: 10 µM unless noted
Protocol: Growth inhibition of the CCRF-CEM human tumor cell line is measured as a screen for anti-cancer activity. Cells are grown in 96 well plates and exposed to the test compound for 48 hours. Compounds are tested at a single concentration, which is 10^-5 M for most compounds. The reported endpoint is percent growth (GI% or GIPRCNT), where numbers from 0 - 100% represent growth inhibition, and numbers from -100% - 0 represent cell death. For example, a value of 40 represents 60% growth inhibition. […]
Compounds without any hit were thinned out: in the full panel of roughly 83,000, 20% have a hit. Calls of active or inactive are those of the source. The calls were made as follows: active = growth percent below 10; inactive = the rest.
The reply should be one of these categories: 1 (active), 0 (inactive)

[[record]]
structure_smiles = "C=C1C(=O)O[C@H]2[C@H]1CC/C(COC(=O)/C=C\\C(=O)NCc1ccc(Cn3c(=O)sn(CCCCC)c3=O)cc1)=C\\CC[C@@]1(C)O[C@@H]21"
label = 1

[[record]]
structure_smiles = "Nc1[nH]n2cc(-c3ccc(F)cc3)nc2c1N=Nc1ccc(S(N)(=O)=O)cc1"
label = 0


Exercise: Identify the outcome logged in this assay for the compound shown: `O=C(Nc1ccccc1O)c1ccc(CNC(=O)c2ccsc2Nc2ccnc(C(F)(F)F)c2)cc1`
Key: 1

Exercise: Identify the outcome logged in this assay for the compound shown: `COc1cc(-c2nc3cc(Cl)c(Cl)cc3[nH]2)ccc1OCC(=O)N=Nc1c(O)[nH]c2ccc(Cl)cc12`
Key: 1

* * *

Test system: MOLT-4 leukemia
Procedure summary: NCI-60 one-dose screen, 48 h
Condition info: 10 µM unless noted
About 83,000 compounds went through this panel and 20% of them were active in at least one assay; those are over-represented in the sample as a whole. The source made the active and inactive calls. Rule for the calls: active = growth percent below 10; inactive = the rest.
The reply should be one of these categories: Yes = active, No = inactive

# count of solved cases: 3
[[record]]
structure_smiles = "CCN(CC)c1ccc(/C=N/NC(=O)Cc2ccc(Nc3ccnc(C(F)(F)F)c3)cc2)c(O)c1"
system_under_test = "MOLT-4 leukemia"
label = "No"

[[record]]
structure_smiles = "COc1ccc(-c2nc(-c3cn(C)c4ncccc34)cs2)cc1"
system_under_test = "MOLT-4 leukemia"
label = "Yes"

[[record]]
structure_smiles = "Cc1ccc(-c2nc(SCc3nc4cc(Cl)c(Cl)cc4[nH]3)[nH]c(=O)c2C#N)cc1"
system_under_test = "MOLT-4 leukemia"
label = "No"


Exercise: Identify the outcome logged in this assay for the molecule shown: `COc1cc(OC)c(/C=C/C(=O)c2c(O)cc(OC)c(C3CCN(C)CC3)c2OC)c(OC)c1`
Key: Yes

Exercise: Identify the outcome logged in this assay for the molecule shown: `CNC1=CC(=O)c2c(C(=O)OC)c(C)[n+]([O-])c(C)c2C1=O`
Key: No

Exercise: Identify the outcome logged in this assay for the molecule shown: `C=CN(C(=O)N1CCN(c2cc3c(cc2F)c(=O)c(C(=O)O)cn3C2CC2)CC1)c1nc(-c2ccc(OC)cc2)cs1`
Key: No

* * *

Tested on: HS 578T breast
Procedure summary: NCI-60 one-dose screen, 48 h (100 = growth as untreated, 0 = no growth, -100 = all killed)
Condition info: 10 µM unless noted
About 83,000 compounds went through this panel and 20% of them were active in at least one assay; those are over-represented in the sample as a whole. Calls of active or inactive are those of the source. Rule for the calls: active = growth percent below 10; inactive = the rest.
Measured growth values are reported for all entries that follow.

Some solved cases for reference:
[[record]]
compound = "CN1CCN(c2ccc(NC(=O)c3cncnc3Nc3ccc(OCc4cccc(F)c4)c(Cl)c3)cc2)CC1"
recorded_value = "75% (inactive)"

[[record]]
compound = "C=C(C)[C@@H]1CC[C@]2(C)[C@H](CC=C3[C@@H]4CC(C)(C)CC[C@]4(CO)CC[C@]32C)[C@@]1(C)CCCN"
recorded_value = "43.4% (inactive)"

[[record]]
compound = "Cc1ccc2nc(NC(=O)CSc3nc(-c4ccccc4)c(C#N)c4nnnn34)sc2c1"
recorded_value = "98% (inactive)"

[[record]]
compound = "COc1ccc(C(=O)Cn2c(C(=O)c3ccc(Cl)cc3)nc3ccccc32)cc1"
recorded_value = "47.2% (inactive)"

[[record]]
compound = "CCOC(=O)c1cc(C(=O)c2cc(OC)c(OC)c(OC)c2)n2ccccc12"
recorded_value = "40.1% (inactive)"


Exercise: Quick check: growth of `O=C(Nc1ccccc1N1CCCC1=O)c1oc2ccc(F)cc2c1-c1cnn(-c2ccccc2)c1` ?
Key: 41.4% [50 µM] (inactive)

Exercise: Quick check: growth of `Clc1ccccc1-c1cnn2cc(-c3ccccc3)cnc12` ?
Key: 74.4% (inactive)

Exercise: Quick check: growth of `C=C1C(=O)O[C@H]2[C@H]1CC/C(COC(=O)/C=C\C(=O)NCc1ccc(Cn3c(=O)sn(CCCl)c3=O)cc1)=C\CC[C@@]1(C)O[C@@H]21` ?
Key: 110% (inactive)

Exercise: Quick check: growth of N#CC1CCc2c(c(-c3ccc4nc(N)sc4c3)nc3ccc4[nH]ncc4c23)C1 (centres undefined) ?
Key: 30.9% (inactive)
